Provide the recorded Emax for the entries that follow.
- assayed target: human mAChR M1 (Homo sapiens)
- Sequence (P11229 whole entry): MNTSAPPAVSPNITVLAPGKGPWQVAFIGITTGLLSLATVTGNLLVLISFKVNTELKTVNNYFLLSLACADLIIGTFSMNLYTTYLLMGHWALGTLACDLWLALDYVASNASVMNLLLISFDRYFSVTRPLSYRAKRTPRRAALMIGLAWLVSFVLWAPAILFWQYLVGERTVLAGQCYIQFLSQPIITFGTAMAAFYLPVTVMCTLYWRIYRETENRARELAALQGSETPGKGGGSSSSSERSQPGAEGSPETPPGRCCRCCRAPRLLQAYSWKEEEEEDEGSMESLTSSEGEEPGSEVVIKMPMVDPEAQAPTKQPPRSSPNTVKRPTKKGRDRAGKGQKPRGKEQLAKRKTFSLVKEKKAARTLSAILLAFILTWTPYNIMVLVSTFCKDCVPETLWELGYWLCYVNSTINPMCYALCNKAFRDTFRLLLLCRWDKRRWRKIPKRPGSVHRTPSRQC
- experiment description: mAChR M1 cell-based functional assay (calcium mobilization), PAM mode: increase in the EC20 acetylcholine response
Give bare numbers, in %.

Completed entries (count: 6):
[[record]]
compound_smiles = "[2H]C1([2H])c2ncccc2C(=O)N1Cc1c(C)cc(-c2ccc3nn(C([2H])([2H])[2H])cc3c2)cc1F"
result_type = "Emax"
readout_number = 83

[[record]]
compound_smiles = "[2H]C1([2H])c2ncccc2C(=O)N1Cc1ccc(-c2ccc(C)c3nn(C([2H])([2H])[2H])cc23)cc1C"
result_type = "Emax"
readout_number = 83

[[record]]
compound_smiles = "[2H]C([2H])([2H])Oc1cnc2c(c1)C(=O)N(Cc1ccc(-c3ccc(OC)c4nn(C)cc34)cc1F)C2([2H])[2H]"
result_type = "Emax"
readout_number = 81

[[record]]
compound_smiles = "[2H]C1([2H])c2ncccc2C(=O)N1Cc1c(F)cc(-c2ccc(C(F)(F)F)c3c2cnn3C([2H])([2H])[2H])cc1F"
result_type = "Emax"
readout_number = 34

[[record]]
compound_smiles = "[2H]C1([2H])c2ncccc2C(=O)N1Cc1c(F)cc(-c2ccc(OCC)c3nn(C([2H])([2H])[2H])cc23)cc1F"
result_type = "Emax"
readout_number = 88

[[record]]
compound_smiles = "[2H]C1([2H])c2ncccc2C(=O)N1Cc1c(F)cc(-c2ccc(F)c3nn(C)cc23)cc1C1CC1"
result_type = "Emax"
readout_number = 86


Now for another entry.
// fetch human mAChR M1 (Homo sapiens) Emax for `[2H]C1([2H])c2ncccc2C(=O)N1Cc1ccc(-c2ccc3nn(C)cc3c2C)cc1F` 43
